Organism: Homo sapiens
Assay: To identify inhibition of the IFN signalling (Jak-Stat) pathway via expression of an eGFP reporter gene under the control of an IFN-stimulated response element (ISRE) containing MxA promoter.
Assay type: functional
Parameters: scale not given: direction of the effect not stated beside the values
Details: 30 µM
recorded.endpoint: Percent Effect (%)
Report the value in % with no unit label.

A selection of reference data follows.
Cc1cc(C)cc(NC(=O)CN2CCCC(n3cncn3)C2)c1 (centres undefined)    3.59
CC(C)c1ccc(CN2CCC3(CCCN(c4nncs4)C3)C2)cc1 (centres undefined)    -25
O=C(c1ccnnc1)N1C[C@@H]2CC[C@H](Oc3cccc(F)c3)[C@@H]2C1    -7.87
CC(C)C1CN(C(=O)c2ccc(C(N)=O)cc2)CCS1 (centres undefined)    6.03
CS(=O)(=O)NCC1CCCCN1C(=O)Nc1cccnc1N1CCCC1 (centres undefined)    2.36

Just so you know, measured Percent Effect for Cc1nc(Nc2nnc(C)s2)cc(C2CCCN2C)n1 (centres undefined) came out at 29.1

// field: Percent Effect; key: O=C1CC2(CCN(c3nncs3)C2)CN1c1ccccc1 (centres undefined) ; value = -3.33

Reported Percent Effect for CNc1nc2c(s1)C(c1c(Cl)cccc1Cl)CC(=O)N2 (centres undefined) was 4.23

Lab book: Percent Effect of CCOCCn1c(=O)[nH]c2cc(C(=O)N(C)Cc3nc(C)cs3)ccc21 noted as 1.41

Kindly note the recorded Percent Effect for CCc1nccn1C1CCCN(C(=O)c2ccc3c(c2)OCO3)C1 (centres undefined) , which is 25.9

Recorded result, Cc1cc(C[C@@H]2CCC[C@H]2NCc2ccccc2C(F)(F)F)on1 , Percent Effect: 13.5

Lab note: Cc1cccc(-n2cc(C(=O)N3CCCC(n4cccn4)C3)nn2)c1 (centres undefined) gave Percent Effect of 4.51

Field Percent Effect (entry COc1c(C2CCCN2Cc2cc(C)no2)c(C)nn1C (centres undefined) ) reads 15.9
